# SYSTEM: purified soybean 15-lipoxygenase L1 (Glycine max, UniProt P08170)
# Sequence (P08170 whole entry): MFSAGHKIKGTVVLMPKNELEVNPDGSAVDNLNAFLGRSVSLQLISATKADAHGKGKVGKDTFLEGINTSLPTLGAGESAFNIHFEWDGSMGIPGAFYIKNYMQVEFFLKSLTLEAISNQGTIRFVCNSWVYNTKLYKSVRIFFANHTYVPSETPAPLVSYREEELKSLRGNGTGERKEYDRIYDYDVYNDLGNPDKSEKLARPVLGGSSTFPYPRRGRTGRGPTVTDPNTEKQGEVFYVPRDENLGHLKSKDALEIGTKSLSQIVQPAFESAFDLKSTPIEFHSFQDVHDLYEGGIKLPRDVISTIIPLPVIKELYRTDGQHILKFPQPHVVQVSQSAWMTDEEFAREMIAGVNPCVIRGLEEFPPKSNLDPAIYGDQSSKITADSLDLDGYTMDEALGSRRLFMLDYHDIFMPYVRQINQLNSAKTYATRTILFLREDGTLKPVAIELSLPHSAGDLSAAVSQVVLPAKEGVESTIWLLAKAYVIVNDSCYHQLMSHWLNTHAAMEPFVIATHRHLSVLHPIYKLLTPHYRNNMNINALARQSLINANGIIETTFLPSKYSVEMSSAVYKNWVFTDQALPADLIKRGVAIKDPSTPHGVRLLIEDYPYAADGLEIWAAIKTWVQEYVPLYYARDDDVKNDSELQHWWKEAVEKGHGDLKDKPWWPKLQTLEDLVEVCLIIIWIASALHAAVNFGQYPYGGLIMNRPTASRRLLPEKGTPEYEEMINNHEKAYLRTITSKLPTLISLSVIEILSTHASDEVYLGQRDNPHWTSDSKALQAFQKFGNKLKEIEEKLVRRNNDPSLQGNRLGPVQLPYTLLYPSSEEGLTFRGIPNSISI
# ASSAY METHOD TEXT: inhibition of purified soybean 15-lipoxygenase (oxymeter, Vmax of oxygen consumption)
# Format: biochemical
# CONDITION SUMMARY: test compound at 1 mM, relative to the control (DMSO), 25° C., pH 7.5, average of 10 tests
# Experimental: The effect of the compounds of disclosed herein on the inhibition of purified soybean 15-lipoxygenase was thus tested, given that soybean 15-lipoxygenase is a study model commonly used as a predictive model for human 5-lipoxygenase. […] The maximum rate of consumption of oxygen (Vmax) was recorded. The various Vmax values were compared with that of the control and the results were expressed as a % thereof. The test was repeated 10 times and an average of these 10 tests were determined.
READOUT: inhibition at 1000 µM
Reply with a number, then the unit it belongs to.

| COMPOUND | SYSTEM | OBSERVED VALUE |
| --- | --- | --- |
| CCCCCCCCCCCCCCCCCC(=O)OC[C@H]1OC(O)[C@H](O)[C@@H](O)[C@@H]1O (some centres unmarked) | purified soybean 15-lipoxygenase L1 (Glycine max, UniProt P08170) | 49% |

Required: inhibition at 1000 µM, one value per compound below.
1. CCCCCCCCC=CCCCCCCCC(=O)OC[C@H]1OC(O)[C@H](O)[C@@H](O)[C@@H]1O (some centres unmarked)
2. CCCCCCCCCCCCCCCC(=O)OC[C@H]1OC(O)[C@H](O)[C@@H](O)[C@@H]1O (some centres unmarked)

[reply]
1: 30%; 2: 15%

Required: inhibition at 1000 µM, one value per compound below.
1. CCCCCC=CCC=CCCCCCCCC(=O)O[C@H]1[C@H](O)[C@@H](CO)OC(O)[C@@H]1O (some centres unmarked)
2. CCCCCC=CCC=CCCCCCCCC(=O)OC[C@H]1OC(O)[C@H](O)[C@@H](O)[C@@H]1O (some centres unmarked)

[reply]
["80%", "71%"]

Taken from patent US8729254B2.
